- Assay Explanation: Pharmacokinetic experiment in rats
- Type: in vivo
- Condition Context: plasma, iv; rat, vein 10 mg/kg
Readout Type: AUC(0-inf) (ng·h/mL)
Answer with a number only, understood to be in ng·h/mL.

Ask: Query: AUC(0-inf); subject: Cc1nc(C#Cc2ccc(F)c(C(=O)Nc3cccnc3)c2)cs1
Reply: 66400

* * *

- Assay Explanation: Pharmacokinetic experiment in rats
- Type: in vivo
- Condition Context: plasma, iv; rat, vein 10 mg/kg
Readout Type: Tmax (min)
# value in min; strip the unit string

Ask: Look up Tmax: Cc1nc(C#Cc2ccc(F)c(C(=O)Nc3cccnc3)c2)cs1 [ZD043]
Reply: 4.98

This collection of values is drawn from patent US10618900B2.
